For each of the molecules below, state its IC50.
Tested on: 786-O (renal cell carcinoma) cells
Test: Cell viability (CellTiter Glo) assay, inhibition of 786-O cell proliferation
Format: cell-based
Details: Homo sapiens, 786-0; 786-O cells, 72 hours, CellTiter Glo; read-out: IC50, inhibition of 786-O cell proliferation

[
  {
    "molecule": "C[C@@H]1CN(c2ccc(N3C(=O)C(C)(C)c4c(N)nc(COC(=N)N5CC(F)(F)C(F)(F)C5)nc43)cn2)C[C@H](C)O1",
    "IC50": "100 to 500 nM"
  },
  {
    "molecule": "CN(C)C(=N)OCc1nc(N)nc(Nc2ccc(Oc3ccccc3)cc2)n1",
    "IC50": "100 to 500 nM"
  },
  {
    "molecule": "N=C(OCc1nc(N)c2c(n1)N(c1cnc(C3CC3)nc1)C(=O)C21CCCC1)N1CCC[C@@H]1C(F)(F)F",
    "IC50": "< 100 nM"
  },
  {
    "molecule": "CCNc1nc(COC(=N)N2CCCC2C(F)(F)F)nc2c1C(C)(C)C(=O)N2c1ccc(N2CCOCC2)cc1 (centres unmarked)",
    "IC50": "< 100 nM"
  }
]

Given item CNc1nc(COC(=N)N2CCCCC2C(F)(F)F)nc2c1C(C)(C)C(=O)N2c1ccc(N2CCOCC2)cc1 (centres unmarked) , the value recorded as its IC50 is < 100 nM

###

For each of the molecules below, state its IC50.
System: 786-O (renal cell carcinoma) cells
Assay: Cell viability (CellTiter Glo) assay, inhibition of 786-O cell proliferation
Type: cell-based
Conditions: Homo sapiens, 786-0; 786-O cells, 72 hours, CellTiter Glo; read-out: IC50, inhibition of 786-O cell proliferation

// known answers, use as guide
[
  {
    "molecule": "N=C(OCc1ncc2c(n1)N(c1ccc(Oc3ccccc3)cc1)C(=O)CC2)N1CCC(F)(F)CC1",
    "IC50": "> 5 µM"
  },
  {
    "molecule": "CC(C)N(CC(F)(F)F)C(=N)OCc1ncc2c(n1)N(c1ccc(N3CCOCC3)cc1)C(=O)C21CCOCC1",
    "IC50": "> 5 µM"
  },
  {
    "molecule": "CC1(C)C(=O)N(c2cnc(N3CCC(F)(F)C3)nc2)c2nc(COC(=N)N3CCOCC3C(F)(F)F)nc(NC3CCC3)c21 (stereo not shown)",
    "IC50": "0.1 to 0.5 µM"
  }
]

Okay, now this molecule:
Given item "N=C(OCc1ncc2c(n1)N(c1ccc(N3CCOCC3)cc1)C(=O)C21CCCC1)N1CCC[C@@H]1C(F)(F)F" , the value recorded as its IC50 is < 0.1 µM

###

For each of the compounds below, state its pIC50.
Test system: 786-O (renal cell carcinoma) cells
Experiment: Cell viability (CellTiter Glo) assay, inhibition of 786-O cell proliferation
Type: cell-based
Conditions: Homo sapiens, 786-0; 786-O cells, 72 hours, CellTiter Glo; read-out: IC50, inhibition of 786-O cell proliferation
pIC50: −log10 of the molar value.

[
  {
    "compound": "CC(C)N(CC(F)(F)F)C(=N)OCc1ncc2c(n1)N(c1ccc(OC3CCCCC3)nc1)C(=O)C21CC1",
    "assay_system": "786-O (renal cell carcinoma) cells",
    "pIC50": "6.30 to 7.00"
  },
  {
    "compound": "CCN(CC(F)(F)F)C(=N)OCc1ncc2c(n1)N(c1ccc(Oc3ccccc3)cc1)CC2(C)C",
    "assay_system": "786-O (renal cell carcinoma) cells",
    "pIC50": "> 7.00"
  },
  {
    "compound": "CC1(C)CN(c2ccc(Oc3ccccc3)cc2)c2nc(COC(=N)N3CCCCC3C(F)(F)F)ncc21 (stereo not shown)",
    "assay_system": "786-O (renal cell carcinoma) cells",
    "pIC50": "> 7.00"
  }
]

Okay, now this compound:
Given item "CC(C)Nc1nc(COC(=N)N2CCC[C@@H]2C(F)(F)F)nc2c1C1(CCCC1)C(=O)N2c1cnc(N2CCC(F)(F)C2)nc1" , the value recorded as its pIC50 is > 7.00
